# Assayed System: Leucyl-cystinyl aminopeptidase (Mus musculus) (UniProt Q8C129)
# Sequence (Q8C129 whole entry, looked up): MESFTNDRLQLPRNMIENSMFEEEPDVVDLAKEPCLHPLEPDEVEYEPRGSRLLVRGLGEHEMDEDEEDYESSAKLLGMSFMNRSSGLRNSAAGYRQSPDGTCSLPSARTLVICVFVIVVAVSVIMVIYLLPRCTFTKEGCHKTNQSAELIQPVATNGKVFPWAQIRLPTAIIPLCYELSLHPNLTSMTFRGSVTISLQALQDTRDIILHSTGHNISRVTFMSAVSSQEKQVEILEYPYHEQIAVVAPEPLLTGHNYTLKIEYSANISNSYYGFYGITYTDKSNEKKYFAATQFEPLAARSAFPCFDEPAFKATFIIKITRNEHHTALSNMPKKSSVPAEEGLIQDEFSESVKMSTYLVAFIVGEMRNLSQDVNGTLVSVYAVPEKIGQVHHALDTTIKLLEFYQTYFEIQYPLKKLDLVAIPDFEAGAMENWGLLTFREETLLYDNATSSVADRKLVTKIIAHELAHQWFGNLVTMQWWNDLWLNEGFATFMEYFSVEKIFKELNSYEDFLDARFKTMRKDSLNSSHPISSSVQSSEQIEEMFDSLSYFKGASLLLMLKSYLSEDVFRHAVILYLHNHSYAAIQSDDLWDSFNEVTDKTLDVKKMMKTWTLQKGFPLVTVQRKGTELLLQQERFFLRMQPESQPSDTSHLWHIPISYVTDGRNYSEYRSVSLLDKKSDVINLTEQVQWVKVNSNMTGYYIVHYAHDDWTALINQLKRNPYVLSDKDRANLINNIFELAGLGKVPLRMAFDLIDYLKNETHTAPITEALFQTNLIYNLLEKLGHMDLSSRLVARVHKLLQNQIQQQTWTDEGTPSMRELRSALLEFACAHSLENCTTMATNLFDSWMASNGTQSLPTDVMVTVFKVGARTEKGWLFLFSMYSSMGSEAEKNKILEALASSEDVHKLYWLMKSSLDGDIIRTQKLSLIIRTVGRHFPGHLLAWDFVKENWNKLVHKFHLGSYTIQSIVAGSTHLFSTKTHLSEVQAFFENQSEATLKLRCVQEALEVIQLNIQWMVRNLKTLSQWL
# Protocol Details: IRAP activators, dose response, selectivity assay for ERAP1 modulator project, biochemical, Leu-AMC fluorescence, cherry-picked samples (AID 743339)
# Settings: purified IRAP, Leu-AMC cleavage fluorescence, 1 h
Property Label: AC200

Compound: COCC(=O)N1[C@@H]2Cn3c(ccc(/C=C/c4ccccc4)c3=O)[C@H]1[C@@H](C(=O)N1CCOCC1)[C@@H]2CO
AC200: 757 nM
//
Compound: O=c1oc2cc(O)ccc2cc1S(=O)(=O)c1ccccc1
AC200: 351 nM

Consider the following items and state reported AC200 for each.
1. COCC(=O)N1[C@@H]2c3ccc(/C=C/c4ccccc4)c(=O)n3C[C@H]1[C@H](CO)[C@H]2C(=O)N1CCOCC1
2. Cc1cc(=O)oc2cc(OCC(=O)N3CCN(C(C)c4ccccc4)CC3)c(Cl)cc12 (stereo not given)
3. O=c1oc2c(CN3CCN(CCO)CC3)c(O)ccc2cc1-c1ccccn1
4. CCCN1[C@@H]2c3ccc(/C=C/c4ccccc4)c(=O)n3C[C@H]1[C@H](CO)[C@H]2C(=O)NCc1ccccn1

Found:
1. 684 nM
2. 1980 nM
3. 275 nM
4. 1000 nM

Consider the following items and state reported AC200 for each.
1. O=c1ccc2cc(OC3O[C@H](CO)[C@@H](O)[C@H](O)[C@H]3O)c(O)cc2o1 (stereo not given in full)
2. Cc1c(C)c2ccc(O)c(CN3CCN(C)CC3)c2oc1=O

Found:
1: 346 nM; 2: 1510 nM

Consider the following items and state reported AC200 for each.
1. Cc1cc(=O)oc2c(CN3CCN(C)CC3)c(O)c(Cl)cc12
2. CN1CCCC1CCNc1ccc2c(=O)c3ccccc3oc2c1 (stereo not given)

Found:
1: 634 nM; 2: 555 nM

* * *

Kindly state AC200 for each of the entries shown.
# Assayed System: Leucyl-cystinyl aminopeptidase (Mus musculus) (UniProt Q8C129)
# Protocol Details: IRAP activators, dose response, selectivity assay for ERAP1 modulator project, biochemical, Leu-AMC fluorescence, cherry-picked samples (AID 743339)
# Settings: purified IRAP, Leu-AMC cleavage fluorescence, 1 h

Consider the worked cases shown below.
Record Smiles: CCN(CC)Cc1c(O)c(Cl)cc2c(C)cc(=O)oc12
AC200: 620 nM
--
Record Smiles: CCc1c(C)c2cc(Cl)c(O)c(CN(C)C)c2oc1=O
AC200: 471 nM
--
Record Smiles: Cc1cc(=O)oc2cc(NS(=O)(=O)c3ccc(F)cc3)ccc12
AC200: 998 nM
--
Record Smiles: CCCCc1cc(=O)oc2cc(O)ccc12
AC200: 1670 nM

Next, consider the following compound.
Lookup: Give recorded AC200 with Leucyl-cystinyl aminopeptidase (Mus musculus) (UniProt Q8C129) for the following compound: CCc1c(C)c2cc(Cl)c(O)c(CN(CC)CC)c2oc1=O
Found: 546 nM

* * *

# Assayed System: Leucyl-cystinyl aminopeptidase (Mus musculus) (UniProt Q8C129)
# Protocol Details: IRAP activators, dose response, selectivity assay for ERAP1 modulator project, biochemical, Leu-AMC fluorescence, cherry-picked samples (AID 743339)
# Settings: purified IRAP, Leu-AMC cleavage fluorescence, 1 h; at 11 µM (top of the series)
Kindly state activation for each of the entries shown.
Give bare numbers, in %.

Record Smiles: Cc1ccc(S(=O)(=O)Nc2ccc3c(c2)C(=O)N([C@@H](C)CO)C[C@H](C)[C@H](CN(C)C)OCCCC[C@@H](C)O3)cc1
activation / %: 8.57
//
Record Smiles: Cc1noc(C)c1S(=O)(=O)Nc1ccc2c(c1)C(=O)N([C@H](C)CO)C[C@@H](C)[C@@H](CN(C)CC1CCCCC1)OCCCC[C@@H](C)O2
activation / %: 2.83
//
Record Smiles: C[C@H](CO)N1C[C@H](C)[C@H](CN(C)Cc2ccc(C(=O)O)cc2)Oc2c(NC(=O)Nc3ccccc3)cccc2C1=O
activation / %: 24.2
//
Record Smiles: C[C@H]1CN([C@@H](C)CO)C(=O)c2cccc(NC(=O)Nc3ccc(C(F)(F)F)cc3)c2O[C@@H]1CN(C)C
activation / %: -7.32
//
Record Smiles: N#Cc1c(N2CCNCC2)nc(-c2ccco2)c2c1CCCC2
activation / %: 56.4
//
Record Smiles: C[C@@H]1CCCCO[C@@H](CN(C)Cc2ccc(C(=O)O)cc2)[C@@H](C)CN([C@H](C)CO)C(=O)c2cc(NC(=O)Nc3cccc4ccccc34)ccc2O1
activation / %: -5.32
//
Record Smiles: COc1ccc(CN(C)C[C@@H]2OCCCC[C@@H](C)Oc3ccc(NS(=O)(=O)c4c(C)noc4C)cc3C(=O)N([C@@H](C)CO)C[C@@H]2C)cc1
activation / %: -18.2
//
Record Smiles: C[C@@H]1CCCCO[C@@H](CN(C)Cc2ccc3c(c2)OCO3)[C@@H](C)CN([C@H](C)CO)C(=O)c2cc(NS(=O)(=O)c3cccs3)ccc2O1
activation / %: -8.52
//
Record Smiles: CO[C@@H]1CN(C)C(=O)c2ccc(NC(=O)Nc3cccc(Cl)c3)cc2OC[C@@H](C)NC[C@H]1C
activation / %: 15.1
//
Record Smiles: C[C@@H]1CCCCO[C@@H](CN(C)CC2CCCCC2)[C@H](C)CN([C@@H](C)CO)C(=O)c2cc(NC(=O)Nc3ccccc3)ccc2O1
activation / %: -13.9

Consider the following items and state reported activation for each.
1. COc1ccc(S(=O)(=O)Nc2ccc3c(c2)C(=O)N([C@@H](C)CO)C[C@H](C)[C@H](CN(C)C)OCCCC[C@@H](C)O3)cc1
2. COc1ccc(CN(C)C[C@@H]2OCCCC[C@@H](C)Oc3ccc(NS(=O)(=O)c4cccs4)cc3C(=O)N([C@@H](C)CO)C[C@H]2C)cc1
3. CCC(=O)N(C)C[C@@H]1Oc2ncc(C#Cc3ccncc3)cc2C(=O)N([C@@H](C)CO)C[C@@H]1C
4. COc1ccc(NC(=O)Nc2ccc3c(c2)C(=O)N([C@@H](C)CO)C[C@@H](C)[C@H](CN(C)Cc2ccc(C(=O)O)cc2)OCCCC[C@H](C)O3)cc1
5. C[C@@H]1CN([C@H](C)CO)C(=O)c2cc(NC(=O)Nc3ccc(F)cc3)ccc2O[C@H]1CN(C)Cc1ccc(C(=O)O)cc1
6. COC(=O)[C@H]1[C@H](CO)[C@H]2Cn3c(ccc(-c4ccncc4)c3=O)[C@H]2N1Cc1ccccc1F
7. C[C@@H]1CCCCO[C@@H](CN(C)Cc2ccc(C(=O)O)cc2)[C@H](C)CN([C@@H](C)CO)C(=O)c2cc(NS(=O)(=O)c3ccc(Cl)cc3)ccc2O1

Found:
-2.35
-1.66
2.82
58.5
1.25
19
-3.97
